Attribute: EC50 (pM)
- tested.system: SARS-CoV-2 spike protein (full length, wild type) (SARS-CoV-2, UniProt P0DTC2 14-1273)
- experiment: cell-based or functional assay
Expressed in pM, but write only the number.

* SARS2-9C6_f3 (antibody, V domains shown, also called antibody number 10) VH: QVQLVQSGAEVKKPGASVKVSCKASGYTFTSYDITWVRQATGQGLEWMGWMSPKSGNTGYAQKFQGRVTMTRNTSISTAYMELSSLRSEDTAVYYCARFGYGSGALDYYYYGLDVWGQGTTVTVSS VL: EIVLTQSPGTLSLSPGERATLSCRASQSVRSSHLAWYRQKPGQAPRLLIYGASSRATGIPDRFSGRGSGTDFTLTISRLEPEDFAVYYCQQYNSSPITFGQGTRLEIK | 105
* SARS2-8H4_f3 (antibody, V domains shown, also called antibody number 9) VH: QVQLVQSGAEVKKPGASVKVSCKASGYTFTSYDITWVRQATGQGLEWMGWMSPNSGNTGYAQKFQGRVTMTRNTSISTAYMELSSLRSEDTAVYYCARFGYGSGALDYYYYGLDVWGQGTTVTVSS VL: EIVLTQSPGTLSLSPGERATLSCRASQSVRSSHLAWYQQKPGQAPRLLIYGASSRATGIPDRFSGSGSGTDFTLTISRLEPEDFAVYYCQQFGSSPITFGQGTRLEIK | 100
* SARS2-16C5_f3 (antibody, V domains shown, also called antibody number 15; family B) VH: QVQLVQSGAEVKKPGASVKVSCKASGYTFTSYDIIWVRQATGQGLEWMGWMSPNSGNTGYAQKFQGRVTMTRNTSIGTAYMELSSLRSEDTAVYFCARFGYGSGALDYYYYGLDVWGQGTTVTVSS VL: EIVLTQSPGTLSLSPGERATLSCRASQSVRSSHLAWYQQKPGQAPRLLIYGASSRATGIPDRFSGSGSGTDFTLTISRLEPEDFAVYYCQQYNNSPITFGQGTRLEIK | 107

With those in mind, consider the next binder.
Please look up its EC50 (pM): SARS2-1E2_f3 (antibody, V domains shown, also called antibody number 4) VH: QVQLVQSGAEVKKPGASVKVSCKASGYTFTSYDITWVRQATGQGLEWMGWMSPNSGNTGYAQKFQGRVTMTRNTSISTAYMELSSLRSEDTAVYYCARFGYGSGALDYYYYGLDVWGQGTTVTVSS VL: EIVLTQSPGTLSLSPGERATLSCRASQSVRSSHFAWYQQKPGQAPRLLIYGASSRATGIPDRFSGSGSGTDFTLTISRLEPEDFAVCYCQQYGSSPITFGQGTRLEIK
218
